Source of measurements: PubChem BioAssay

TARGET OR TEST SYSTEM: Focal adhesion kinase 1 (Homo sapiens)
ASSAY NAME: small-molecule microarray binders of FAK, primary screen, biochemical, 635/667 nm fluorescence, BSA, DTT (AID 1130);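 note: composite of spot emission at 667 nm and signal to noise over triplicate slides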
RUN CONDITIONS: PTK2 binding, 635 nm fluorescence, higher = more signal
REPORTED METRIC: composite z-score
Quick one: just the number, no unit, thanks!

// solved cases for composite z-score follow
INSERT INTO assay_data (compound, reported_metric, result_number) VALUES
  ('O=C(CS)NCCCCCNC(=O)[C@H]1C[C@H]2C(=O)N[C@@H](Cc3ccccc3)C(=O)N2[C@H]1c1ccc(O)cc1', 'composite z-score', 0.485),
  ('[N-]=[N+]=Nc1ccccc1C[C@@]1(C(=O)N2CCOCC2)N=C(c2ccc(OCCCO)cc2)O[C@@H]1c1ccccc1N=[N+]=[N-]', 'composite z-score', 1.41);

# context switch: different compound, same composite z-score
composite z-score for O=C(NCC(O)CO)[C@]1(Cc2ccccc2)N=C(c2ccc(OCCCO)cc2)O[C@@H]1c1ccccc1 (some centres not stated) ?
0.774
